protocol_details: qHTS of pediatric cancer cell lines to identify multiple opportunities for drug repurposing: Confirmatory screen for RD cells (AID 1347124);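 further: cells exposed to compound for 48 h before viability readout; nearly all actives have a fitted effect of over 65% in size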
measurement_parameters: RD rhabdomyosarcoma cell viability; series mostly up to 45.9 µM
Inconclusive results are not listed. Calls of active or inactive are those of the source. The call rests on the fitted dose curve; in most records, active means well fitted cell-killing curve with a large enough effect; inconclusive means small, poorly fitted or top-dose-only effect, or effect the other way; inactive means no such curve, though single readings can be large or run the other way.
Your answer must be one of the following: active, inactive

{"compound": "CCCCOc1ccc(CC(=O)NO)cc1", "group_label": "inactive"}
{"compound": "Cc1cccc(N(C)C(=S)Oc2ccc3ccccc3c2)c1", "group_label": "inactive"}
{"compound": "Cn1nnc2c(C(N)=O)ncn2c1=O", "group_label": "inactive"}
{"compound": "Nc1nc(N)nc(-c2cc(Cl)ccc2Cl)n1", "group_label": "inactive"}

In: Dear all, I need the recorded test outcome for COc1cc2nc(N3CCCN(C)CC3)nc(NC3CCN(Cc4ccccc4)CC3)c2cc1OC , thank you.
Out: active

In: Now give it for Nc1nc(F)nc2c1ncn2[C@@H]1O[C@H](CO)[C@@H](O)[C@@H]1O too.
Out: active

In: Another compound to look at: CCOC(=O)c1ccc(C#Cc2ccc3c(c2)C(C)(C)CCS3)nc1
Out: inactive
